Quick list: cytotoxicity at 10 µM per entry.
Assay name: Toxicity liver stage against HepG2, at 10uM
Format: cell-based
Parameters: test concentration 10 uM, cell line HepG2-A16-CD81EGFP
Assay conditions: human, HepG2-A16-CD81EGFP cells; read-out: INHIBITION
Assay metric: cytotoxicity at 10 µM (%)

[
  {
    "Compound": "COc1cccc(N2CC3(CCN(c4cc(OC)ncn4)C3)CC2=O)c1 (centres undefined)",
    "Assay metric": "cytotoxicity at 10 µM",
    "Measured value": 21.7
  },
  {
    "Compound": "O=C(c1cnccn1)N1CCc2ncnc(C3CCOC3)c2CC1 (centres undefined)",
    "Assay metric": "cytotoxicity at 10 µM",
    "Measured value": -81.9
  },
  {
    "Compound": "CN1CCC2(CCN(CC3CC3)CC2)C1=O",
    "Assay metric": "cytotoxicity at 10 µM",
    "Measured value": 10.9
  },
  {
    "Compound": "CCOCCCNC(=O)c1nc2c(s1)CCCN2c1ccc(C)nn1",
    "Assay metric": "cytotoxicity at 10 µM",
    "Measured value": 13.5
  },
  {
    "Compound": "Cc1cc(C(=O)N2CCCC2c2noc(C(C)C)n2)c(C)o1 (centres undefined)",
    "Assay metric": "cytotoxicity at 10 µM",
    "Measured value": -3.54
  },
  {
    "Compound": "Cc1nn(C)c(C)c1C1COCCN1c1ncnc2sccc12 (centres undefined)",
    "Assay metric": "cytotoxicity at 10 µM",
    "Measured value": 2.84
  },
  {
    "Compound": "Cc1ccccc1C(=O)N1Cc2c(Cn3ccnc3)nn(C)c2C1",
    "Assay metric": "cytotoxicity at 10 µM",
    "Measured value": -72.1
  },
  {
    "Compound": "Cc1ccc(C2CCCCCN2Cc2cn(C)nc2C)cc1 (centres undefined)",
    "Assay metric": "cytotoxicity at 10 µM",
    "Measured value": -8.56
  },
  {
    "Compound": "O=C1N(CC2CC2)CCC12CCN(CC1CC1)CC2",
    "Assay metric": "cytotoxicity at 10 µM",
    "Measured value": 7.07
  },
  {
    "Compound": "O=c1ccc(-n2ccnc2)nn1CCNS(=O)(=O)c1ccc(Br)cc1",
    "Assay metric": "cytotoxicity at 10 µM",
    "Measured value": -7.21
  },
  {
    "Compound": "Cc1cc(C(=O)NCc2cccnc2N2CCCC(O)C2)c(C)o1 (centres undefined)",
    "Assay metric": "cytotoxicity at 10 µM",
    "Measured value": 16.3
  },
  {
    "Compound": "CNS(=O)(=O)c1ccc(CN2CCCN(Cc3ccncc3)CC2)cc1",
    "Assay metric": "cytotoxicity at 10 µM",
    "Measured value": 7.06
  },
  {
    "Compound": "CC(C)(C)N1CCN(C(=O)c2cccnc2-n2cncn2)CC1",
    "Assay metric": "cytotoxicity at 10 µM",
    "Measured value": 4.22
  },
  {
    "Compound": "COCc1nc2c(o1)CN(C(=O)NCc1ccccc1)C2",
    "Assay metric": "cytotoxicity at 10 µM",
    "Measured value": 10.6
  }
]

====

Assay name: Toxicity liver stage against HepG2, at 10uM
Format: cell-based
Set-up: test concentration 10 uM, cell line HepG2-A16-CD81EGFP
Assay conditions: human, HepG2-A16-CD81EGFP cells; read-out: INHIBITION
Parameter cytotoxicity at 10 µM: see the listing below.

[
  {
    "Molecule": "O=S(=O)(NCC1COCc2c(-c3ccncc3)nnn2C1)C1CC1 (centres undefined)",
    "cytotoxicity at 10 µM, %": -80.9
  },
  {
    "Molecule": "COC(=O)CCCC(=O)N1CCCCC1c1ccc(F)cc1 (centres undefined)",
    "cytotoxicity at 10 µM, %": -42.7
  },
  {
    "Molecule": "CCN(C(=O)NCc1ccccc1OC(F)F)C(C)c1cccnc1 (centres undefined)",
    "cytotoxicity at 10 µM, %": -2.28
  },
  {
    "Molecule": "c1cncc(N2CCCn3nnc(CN4CCOCC4)c3C2)c1",
    "cytotoxicity at 10 µM, %": 2.46
  },
  {
    "Molecule": "COc1cccc(CNCCc2cc(F)cc3c2OCOC3)c1",
    "cytotoxicity at 10 µM, %": -23.1
  },
  {
    "Molecule": "O=C1NCC2CN(Cc3ccccc3OCc3ccccn3)CCN12 (centres undefined)",
    "cytotoxicity at 10 µM, %": -1.36
  },
  {
    "Molecule": "O=C(O)c1ccc(F)c(S(=O)(=O)N2CCOc3ccccc32)c1",
    "cytotoxicity at 10 µM, %": -4.28
  },
  {
    "Molecule": "CC(Cn1cccn1)NC(=O)NCc1cccnc1OC1CCCC1 (centres undefined)",
    "cytotoxicity at 10 µM, %": 4.86
  },
  {
    "Molecule": "O=C(CCN1CCCC1)N1CC[C@@H](c2ccc3ccccc3c2)[C@H](O)C1",
    "cytotoxicity at 10 µM, %": 2.97
  },
  {
    "Molecule": "Cc1ccc(-c2nc(CCNC(=O)CCN3CCOC3=O)co2)cc1",
    "cytotoxicity at 10 µM, %": 2.33
  },
  {
    "Molecule": "Cc1cccc(C2(CNC(=O)c3ccnc(N(C)C)c3)CCOCC2)c1",
    "cytotoxicity at 10 µM, %": 2.85
  },
  {
    "Molecule": "COC1CN(C(=O)COC(C)=O)CCC(=O)N(C)c2ccccc21 (centres undefined)",
    "cytotoxicity at 10 µM, %": -3.03
  },
  {
    "Molecule": "CCC(=O)N1CCCC(C(=O)c2cnn(-c3ccc(F)cc3)c2N)C1 (centres undefined)",
    "cytotoxicity at 10 µM, %": 4.57
  },
  {
    "Molecule": "Cc1cccc(C(=O)N2CCN(CCOC(C)C)CC2)n1",
    "cytotoxicity at 10 µM, %": -0.0394
  },
  {
    "Molecule": "Cc1ccccc1OCC1CCCN(C(=O)Cc2c[nH]c(=O)[nH]c2=O)C1 (centres undefined)",
    "cytotoxicity at 10 µM, %": -136
  },
  {
    "Molecule": "Cc1cc(N2CCCN(c3nc(C)nc(C)c3C)CC2)ccn1",
    "cytotoxicity at 10 µM, %": -13.1
  },
  {
    "Molecule": "Cc1ccccc1C1(C(=O)NCCN(C)C)CCOCC1",
    "cytotoxicity at 10 µM, %": -1.95
  },
  {
    "Molecule": "COC(=O)COc1c(F)cc(Br)cc1C(C)=O",
    "cytotoxicity at 10 µM, %": 2.63
  },
  {
    "Molecule": "CCN1CCC(CNCc2c[nH]nc2C(C)(C)C)C1 (centres undefined)",
    "cytotoxicity at 10 µM, %": -7.77
  },
  {
    "Molecule": "CN(CCCOc1ccccc1)Cc1nccn1C",
    "cytotoxicity at 10 µM, %": 2.07
  },
  {
    "Molecule": "CN(Cc1ncnn1C)C(=O)CCn1ccc2ccccc21",
    "cytotoxicity at 10 µM, %": 1.16
  },
  {
    "Molecule": "Cn1cccc1C(=O)N1C[C@@H](OCc2ccncc2)[C@@H]2OCCC[C@@H]21",
    "cytotoxicity at 10 µM, %": 2.32
  },
  {
    "Molecule": "CC(C)CCn1ccc(NC(=O)N2CCCC2CN2CCOCC2)n1 (centres undefined)",
    "cytotoxicity at 10 µM, %": -2.16
  },
  {
    "Molecule": "Cc1cccc(C2CCCN2S(=O)(=O)N(C)C)n1 (centres undefined)",
    "cytotoxicity at 10 µM, %": -5.5
  },
  {
    "Molecule": "Fc1ccc(CCN2CCC(c3nnc(-c4cccnc4)o3)CC2)cc1",
    "cytotoxicity at 10 µM, %": 6.59
  },
  {
    "Molecule": "CC(C)CC(O)C1CCN(C(=O)c2coc(CN3CCOCC3)c2)CC1 (centres undefined)",
    "cytotoxicity at 10 µM, %": -7.27
  },
  {
    "Molecule": "CC(C)c1nsc(NC2CC(=O)N(C(C)(C)C)C2)n1 (centres undefined)",
    "cytotoxicity at 10 µM, %": 5.09
  },
  {
    "Molecule": "CC1c2ncc(Cn3cncn3)n2CCN1C(=O)N(C)C (centres undefined)",
    "cytotoxicity at 10 µM, %": 0.267
  },
  {
    "Molecule": "CCOc1cccc(CCNC(=O)NC2CCc3[nH]ncc3C2)n1 (centres undefined)",
    "cytotoxicity at 10 µM, %": 8.95
  },
  {
    "Molecule": "CS(=O)(=O)N1CCC(C(=O)NC(Cc2ccsc2)c2cccnc2)CC1 (centres undefined)",
    "cytotoxicity at 10 µM, %": -12.5
  },
  {
    "Molecule": "Cn1nc(C(=O)NCc2cccs2)c2c1CCS(=O)(=O)C2",
    "cytotoxicity at 10 µM, %": -0.328
  },
  {
    "Molecule": "Cc1noc(C)c1CN1C[C@@H]2OCCN(Cc3cnn(C)c3)[C@@H]2C1",
    "cytotoxicity at 10 µM, %": -139
  },
  {
    "Molecule": "CCOCC(O)CN1CCN(C(=O)Cc2ccc3c(c2)CCO3)CC1 (centres undefined)",
    "cytotoxicity at 10 µM, %": -18.5
  },
  {
    "Molecule": "CC(=O)N1CCc2c(nc(N(C)C)nc2NCCCn2ccnc2C)C1",
    "cytotoxicity at 10 µM, %": -7.42
  }
]
